Provide the reported protein stability index of each item.
B1: CAMK2D (parent)
chain: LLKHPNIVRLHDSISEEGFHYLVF

- Variants of: B1
- Method: protein stability index of a GFP-peptide fusion (GPS, HEK-293T) (PSI 1-6); higher = more stable;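 note: lentivirally expressed fusions sorted by FACS into six bins by GFP to DsRed ratio, PSI derived from sequencing read proportions per bin multiplied by bin number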
- Protocol Conditions: c terminus: a fixed tail appended
Reply with just the number.

Quick one: give measured protein stability index for V23N
3.14

Quick one: give measured protein stability index for E16S
1.19

Quick one: give measured protein stability index for D12S
3

Quick one: give measured protein stability index for G18R
3.12

Quick one: give measured protein stability index for V8I
1.87

Quick one: give measured protein stability index for L10V
1.75

Quick one: give measured protein stability index for L22D
2.08

Quick one: give measured protein stability index for L22M
2.59

Quick one: give measured protein stability index for H11Q
2.07

Quick one: give measured protein stability index for L10R
1.17

Quick one: give measured protein stability index for F24A
1.62

Quick one: give measured protein stability index for I14H
1.11

Quick one: give measured protein stability index for K3N
2.22

Quick one: give measured protein stability index for I7C
3.93

Quick one: give measured protein stability index for L2T
1.94

Quick one: give measured protein stability index for F24D
2.21

Quick one: give measured protein stability index for I7Q
2.14

Quick one: give measured protein stability index for L1Y
1.96

Quick one: give measured protein stability index for H20T
3.25

Quick one: give measured protein stability index for G18T
1.87

Quick one: give measured protein stability index for V23G
2.12

Quick one: give measured protein stability index for G18D
2.39

Data provenance is the supplement of paper PMC10567573.
